- test details: Half life in ICR mouse at 10 mg/kg, po measured for 24 hrs by LC-MS/MS analysis
- Assay type: ADME, organism-based
- study conditions: in vivo
// reported half-life for each item listed

>  <compound>
Cc1nc2cccc(N)c2c(=O)n1C1CCC(=O)NC1=O (configuration not stated) [AVADOMIDE]

>  <half-life>
2.01 h

$$$$

Give the measured half-life of Cc1nc2cccc(NCc3ccc(CN4CCCCCC4)cc3F)c2c(=O)n1C1CCC(=O)NC1=O (configuration not stated) .
3.89 h

###

- test details: Cmax in ICR mouse at 1 mg/kg, iv measured for 24 hrs by LC-MS/MS analysis
- Type: ADME, organism-based
- Parameters: dose 1 mg/kg, time 24 hrs, route iv
- study conditions: in vivo
metric name: Cmax

>  <molecule>
Cc1nc2cccc(N)c2c(=O)n1C1CCC(=O)NC1=O (configuration not stated) [AVADOMIDE]

>  <Cmax>
1.35 µg/mL

$$$$

--- query ---
# lookup: Cmax of Cc1nc2cccc(NCc3ccc(CN4CCCCCC4)cc3F)c2c(=O)n1C1CCC(=O)NC1=O (configuration not stated)
0.484 µg/mL
